- target or system: PAK2 (human) (UniProt Q13177)
- Sequence (Q13177 whole entry, looked up): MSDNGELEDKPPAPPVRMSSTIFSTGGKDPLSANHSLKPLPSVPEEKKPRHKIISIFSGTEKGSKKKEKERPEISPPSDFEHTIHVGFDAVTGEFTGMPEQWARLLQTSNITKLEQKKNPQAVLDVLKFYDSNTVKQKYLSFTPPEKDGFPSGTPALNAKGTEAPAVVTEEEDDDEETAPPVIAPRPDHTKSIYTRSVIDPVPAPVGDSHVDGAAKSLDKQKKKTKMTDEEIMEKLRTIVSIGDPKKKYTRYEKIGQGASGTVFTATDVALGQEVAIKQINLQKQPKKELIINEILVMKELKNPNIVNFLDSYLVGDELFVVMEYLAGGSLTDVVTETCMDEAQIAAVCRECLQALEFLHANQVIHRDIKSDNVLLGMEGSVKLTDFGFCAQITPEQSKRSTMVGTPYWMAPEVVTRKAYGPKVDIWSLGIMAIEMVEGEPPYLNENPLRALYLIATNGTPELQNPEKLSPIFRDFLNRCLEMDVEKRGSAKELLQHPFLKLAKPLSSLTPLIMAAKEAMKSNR
- assay protocol: radiometric filter-binding kinase assay, Kinase HotSpot
- assay setup: compound 0.5 µM; ATP 10 µM
Record form. Attribute: residual activity. Fill in for each entry.
In your response, the unit should come after the numeric value.

Worked cases, residual activity given:
O=C1NC(=O)C(c2cn(CCCn3ccnc3)c3ccccc23)=C1Nc1ccccc1 = 88.5%
O=C1Nc2ccc(Cl)cc2/C1=C/c1cc(Cl)c(O)c(Cl)c1 = 96.8%
c1ccc(-c2n[nH]c3c2oc2ccccc23)cc1 = 92.3%
Cc1[nH]c(/C=C2\C(=O)Nc3ccc(S(=O)(=O)N(C)c4cccc(Cl)c4)cc32)c(C)c1C(=O)N1CCN(C)CC1 = 96.2%
COc1ccc(COc2ccc(Cc3cnc(N)nc3N)cc2OC)cc1 = 95.3%
CCN(CC)CCNC(=O)c1c(C)[nH]c(/C=C2\C(=O)Nc3ccc(F)cc32)c1C = 98.1%
Nc1ncnc2c1c(-c1ccc(Oc3ccccc3)cc1)cn2C1CCCC1 = 106%
CC(C)N(CCC(=O)c1ccc2ccccc2c1)Cc1ccccc1 = 107%

Hi there! I need residual activity for each item below, if you can.
1. Nc1cccc(-c2cc3c(Oc4cccc(O)c4)ncnc3[nH]2)c1
2. O=c1cc(N2CCOCC2)oc2c1ccc1ccccc12
3. Nc1ccc2ncnc(NCCc3ccc(Oc4ccccc4)cc3)c2c1

Data returned:
["88.9%", "103%", "102%"]

Hi there! I need residual activity for each item below, if you can.
1. O=C1NC(=O)c2c1c1c3ccccc3n3c1c1c2c2ccccc2n1C1CCC3O1
2. CCOC(=O)c1c(C)[nH]c(/C=C2\C(=O)Nc3ccccc32)c1C
3. O=C(Nc1cccc(Nc2nccc(Nc3cccc(C(F)(F)F)c3)n2)c1)C1CC1

Data returned:
43.9%
92.5%
105%

Hi there! I need residual activity for each item below, if you can.
1. Cc1ccc(Nc2nccc(N(C)c3ccc4c(C)n(C)nc4c3)n2)cc1S(N)(=O)=O
2. CC[n+]1c(/C=C/N(C)c2ccccc2)n(-c2ccccc2)c2ccc(-c3nc4ccccc4s3)cc21
3. CCN(CC)CCNC(=O)c1c(C)[nH]c(/C=C2\C(=O)Nc3ccc(Cl)cc32)c1C

Data returned:
1: 98.9%; 2: 97.3%; 3: 92.7%
